Provenance of the data: FireProtDB (doi:10.1021/bi00123a006)

As shown below, each of these variants has a reported unfolding free energy value.
B1: Ribonuclease, P00648 (parent)
chain: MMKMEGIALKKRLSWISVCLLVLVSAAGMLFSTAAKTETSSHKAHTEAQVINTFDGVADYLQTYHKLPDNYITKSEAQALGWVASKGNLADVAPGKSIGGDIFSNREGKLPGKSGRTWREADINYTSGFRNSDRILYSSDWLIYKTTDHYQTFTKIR

- Variants of: B1
- experimental.context: Bacillus amyloliquefaciens; pH 8.9; 25 °C; Urea; NMR; Tris 30 mM; NaCl 1 M; structure 1BNI; whole UniProt chain shown
Only the number, expressed in kcal/mol, is required.

Here's what some known entries look like.
>  <mutation.id>
T73H D101N

>  <unfolding free energy [kcal/mol]>
3.78

$$$$
>  <mutation.id>
H65G W141L

>  <unfolding free energy [kcal/mol]>
8.38

$$$$

Req: Entry "G81H" : reported unfolding free energy = ?
Resp: 4.9

Req: Repeat with "T53H"
Resp: 6.49

Req: Repeat with "D101N"
Resp: 5.73

Req: Repeat with "W141L"
Resp: 7.41
